Assay: NCI Yeast Anticancer Drug Screen. Data for the sgs1 mgt1 strain (AID 161);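 further: 0% = growth of cultures given vehicle only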
Details: S. cerevisiae sgs1 mgt1 strain, at 5.0 µM (retest, dose inferred, filed as 0.5), stronger effect = higher value
About 79,000 compounds went through this panel and 15% of them were active in at least one assay; those are over-represented in the sample as a whole.
Parameter: growth inhibition. Scope: all listed entries.
Numeric only. Scale: %

# count of solved cases: 3
C=CC[P+](CC[P+](CC=C)(c1ccccc1)c1ccccc1)(c1ccccc1)c1ccccc1; -2
CC(=O)Nc1nc(Cl)c2ncn(C3CC(OC(=O)c4ccc(C)cc4)C(COC(=O)c4ccc(C)cc4)O3)c2n1 (stereo unspecified); 57
C=CC1(C)CCC2C(=CCC3C(C)(C(=O)O)CCCC23C)C1 (stereo unspecified) (tested in a mixture with another compound); -5

Challenge: Complete the entry with growth inhibition for CC(C)=NOc1ccc([N+](=O)[O-])cc1[N+](=O)[O-]
Response given: 17

Challenge: Complete the entry with growth inhibition for CCOC(=O)C1=C(c2ccccc2)N(C)c2ccccc2S1
Response given: 5

Challenge: Complete the entry with growth inhibition for Cn1c(C2CCC(=O)N2Cc2ccccc2)n[nH]c1=S (stereo unspecified)
Response given: 4

Challenge: Complete the entry with growth inhibition for CC1CCCC(C(O)(C(=O)O)C2CCCC(C)C2)C1 (stereo unspecified)
Response given: 8

Challenge: Complete the entry with growth inhibition for CC1(C)c2ccccc2Cc2cc3ccccc3nc21
Response given: -5

Challenge: Complete the entry with growth inhibition for Cc1ccc(S(=O)(=O)NCCSSCCNS(=O)(=O)c2ccc(C)cc2)cc1
Response given: -2

Hey, just so you know, these numbers are from PubChem BioAssay (NCI).
